// data source = the supplement of paper PMC13380429

# System: HepG2
# test.protocol: cell viability relative to DMSO; higher = less toxic
# settings: 72 h; 10 nM
Structures can show the parent of a compound that is named as a salt.
measured.attribute: cell viability (%)

INSERT INTO measurements (compound, target, obs_value) VALUES
  ('O=C1NC(=O)/C(=C/c2ccc(-c3ccc(F)cc3O)o2)S1', 'HepG2', 96.2),
  ('CC(=O)O[C@]1(C(C)=O)CC[C@H]2[C@@H]3CCC4=CC(=O)CC[C@]4(C)[C@H]3CC[C@@]21C [hydroxyprogesterone-acetate]', 'HepG2', 95.5),
  ('Cc1noc2c1-c1ccccc1C(c1ccc(Cl)cc1)=N[C@H]2CC(N)=O', 'HepG2', 111),
  ('CO/N=C(\C(=O)N[C@@H]1C(=O)N2C(C(=O)O)=C(Cn3ccc(=N)n3CCO)CS[C@H]12)c1csc(N)n1 [Cefoselis sulfate]', 'HepG2', 116),
  ('CO[C@H]1/C=C\C=C(/C)C(=O)NC2=CC(=O)C(NCCN(C)C)=C(C[C@@H](C)C[C@H](OC)[C@H](O)[C@@H](C)/C=C(\C)[C@@H]1OC(N)=O)C2=O', 'HepG2', 57.9),
  ('CCOC(=O)C1=CCCC[C@H]1S(=O)(=O)Nc1ccc(F)cc1Cl', 'HepG2', 95.6),
  ('CCCCCCOC(=O)CCC(=O)CN [hexaminolevulinate]', 'HepG2', 105);

====

# Tested on: Caco-2
# test.protocol: cell viability relative to DMSO; higher = less toxic
# settings: 72 h; 1 nM
measured.attribute: cell viability (%)

INSERT INTO results (compound, target, obs_value) VALUES
  ('CCC(=O)N[C@@H]1Cc2ccccc2[C@H](c2ccccc2)C1', 'Caco-2', 103),
  ('Cc1ccc(NC(=O)CCCCCC(=O)Nc2ccccc2N)cc1', 'Caco-2', 103),
  ('Cc1sc2c(c1C)C(c1ccc(Cl)cc1)=N[C@@H](CC(N)=O)c1nnc(C)n1-2', 'Caco-2', 100),
  ('COc1cc2ncnc(Nc3ccc(Oc4ccccc4)cc3)c2cc1OC', 'Caco-2', 96.8),
  ('O=C(OC(C(F)(F)F)C(F)(F)F)N1CCC(C(O)(c2ccc3c(c2)OCO3)c2ccc3c(c2)OCO3)CC1', 'Caco-2', 94.6),
  ('Cn1cc(C(F)(F)F)nc1-c1ccc(OCC(O)CNCCOc2ccc(O)c(C(N)=O)c2)cc1 (stereo not given)', 'Caco-2', 102),
  ('CC(C)NCC(O)c1ccc2ccccc2c1 (stereo not given)', 'Caco-2', 89.8),
  ('CC(=O)OCC1=C(C(=O)O)N2C(=O)[C@@H](NC(=O)CCCC(N)C(=O)O)C2SC1 (stereo not given in full)', 'Caco-2', 88.7),
  ('NCCC(Oc1ccc(C(F)(F)F)cc1)c1ccccc1 (stereo not given)', 'Caco-2', 90),
  ('CN1CCN(c2c(F)cc3c(=O)c(C(=O)O)cn(CCF)c3c2F)CC1', 'Caco-2', 102),
  ('CC(=O)Oc1cc(C(F)(F)F)ccc1C(=O)O', 'Caco-2', 96),
  ('CC(C)c1cc(C(=O)N2Cc3ccc(CN4CCN(C)CC4)cc3C2)c(O)cc1O', 'Caco-2', 98.5),
  ('O=C(/C=C/N1C[C@H]2C[C@@H]1CN2c1ccccn1)c1ccccc1O', 'Caco-2', 92),
  ('CN1CCC(OC(c2ccccc2)c2ccccc2)CC1', 'Caco-2', 96.1),
  ('O=C(CCBr)N1CC[N+]2(CC1)CC[N+]1(CCN(C(=O)CCBr)CC1)CC2', 'Caco-2', 103);
